Listed next: entries and their corresponding T/C.
# Tested on: L1210 leukemia ip in BDF1 mice, survival T/C
# Run description: NCI In Vivo Anticancer Drug Screen. Data for tumor model L1210 Leukemia (intraperitoneal) in B6D2F1 (BDF1) mice
# Test settings: endpoint: mean survival time; dose: 100.0 mg/kg/injection; schedule: Q01DX009 (ip); vehicle: saline with Tween-80; higher = longer survival
Toxic doses and inconclusive results are not listed.
Measurement name: T/C

> print(dat)
                                    compound    endpoint.value
 1                   Cc1noc(N)c1-n1c(C)ccc1C  102 % of control
 2         CCN(CC)c1ccc(NC(=O)Nc2ccccc2C)cc1   93 % of control
 3                      Cc1ccc(C)c2c1CCCC2=O   88 % of control
 4  CC(=O)CC(=O)NC(C)CCc1ccccc1 (stereo unspecified)   92 % of control
 5  Cc1cc(Cl)ccc1NC(=O)c1ccc([N+](=O)[O-])cc1   92 % of control
 6     CCC(C)C(C)(CO)CO (stereo unspecified)  102 % of control
 7    Cc1ccc(NS(=O)(=O)c2ccc3ccccc3c2)c(C)c1  106 % of control
 8  Cc1ccc(COC(=O)Nc2ccc(Cl)c([N+](=O)[O-])c2)cc1   92 % of control
 9           COc1cc(OC)c(OC)cc1C=NC1CCCCCCC1  102 % of control
10     O=C(CC(O)(C(F)(F)Cl)C(F)(F)Cl)c1cccs1  108 % of control
11     COc1ccc(C)cc1NC(=O)NC(=O)c1ccc(Cl)cc1   98 % of control
12                C1CCCC(=NN=C2CCCCCCC2)CCC1   89 % of control
13  Cc1ccc(S(=O)(=O)Nc2ccccc2)c(CC(O)(c2ccccc2)c2ccccc2)c1   86 % of control
14               CC(C)c1ccc([N+](=O)[O-])cc1   96 % of control
15  CCOC(=O)C(C#N)C(C)CC#N (stereo unspecified)  119 % of control
16      CCOC(=O)CNC(=O)Nc1ccc(S(N)(=O)=O)cc1   95 % of control
